Entries and their growth values follow.
test system: EKVX NSCLC; assay: NCI-60 one-dose screen, 48 h (100 = growth as untreated, 0 = no growth, -100 = all killed); details: 10 µM unless noted
Compounds without any hit were thinned out: in the full panel of roughly 83,000, 20% have a hit.
Answer in %, number only, no unit symbol.

Solved cases (5 shown):
[[record]]
molecule = "Cc1ccccc1C(=O)c1ccccc1C(=O)O"
metric_name = "growth"
reported_result = 105

[[record]]
molecule = "O=[N+]([O-])c1cccc(-c2cc(-c3cc(Br)ccc3O)[nH]n2)c1"
metric_name = "growth"
reported_result = 18.1

[[record]]
molecule = "CCC(c1cccc(Br)c1)C(C(=O)O)c1ccc(OC)cc1 (configuration not stated)"
metric_name = "growth"
reported_result = 100

[[record]]
molecule = "O=C(C[N+](=O)[O-])c1ccc(Cl)cc1"
metric_name = "growth"
reported_result = 107

[[record]]
molecule = "O=C1CCCCN1CCCCC#Cc1ccccc1C#Cc1ccc([N+](=O)[O-])cc1"
metric_name = "growth"
reported_result = 74.8


Query :: What value of growth has been recorded for this entry: `Nc1cc2c(cc1N)-c1cc(N)c(N)cc1C2`
Result :: 89.2

Query :: Entry `CCN(CC)CCCNc1nc(C)cc(Nc2ccc3nc(C)cc(N)c3c2)n1` please
Result :: 96.2

Query :: Follow-up entry: `Nc1ccccc1C#C/C=C\C#Cc1cccc(O)c1`
Result :: 71.8

Query :: Thanks! And `C/C(=C\c1csc(C)n1)[C@@H]1C[C@@H]2O[C@]2(C)CCC[C@H](C)[C@H](O)[C@@H](C)C(=O)C(C)(C)[C@@H](O)CC(=O)N1` ?
Result :: -25.6

Query :: Please do the same for `O=S(=O)(NCCCNc1cc(-c2cn(-c3ccccc3)nc2-c2cccc(O)c2)ccn1)c1ccc(Cl)cc1` as well.
Result :: 27.6

Query :: Note, next up: CC1Cc2c(N(C)C)ncnc2N(C)c2ccc(Cl)cc21 (configuration not stated)
Result :: 29.3

Query :: Now the molecule `CCCCCC/C=C\CCCCCCCCOc1ccc(CCOP(=O)(O)OCC[N+](C)(C)C)cc1`
Result :: 95.3

Query :: Next molecule: CCN1C(=O)N(CC)C2Nn3c(s/c(=C\c4cccc(F)c4)c3=O)=NC21 (configuration not stated)
Result :: 79

Query :: Could you do the same for `NC(=O)c1c(NC(=O)c2ccc3c(c2)OCO3)sc2c1CCC(=O)C2` , please?
Result :: 5.58

Query :: Now consider `COc1cc(Br)c(OC)cc1Br` and answer again.
Result :: 76

Query :: Follow-up item: `CCCS(=O)(=O)c1nc(NC2CC2)cc(-c2ccc3c(ccn3C3CC(C)(C)NC(C)(C)C3)c2)n1`
Result :: 22.6

Query :: `CC(=O)Oc1cccc(OC(C)=O)c1OC(C)=O` , same question.
Result :: 95.4

Query :: Another molecule to check: `Cc1ccc2nc(-c3c(CCCO)noc3N)[nH]c(=O)c2c1`
Result :: 101

Query :: Then what about the molecule COc1ccc2c(c1)C=CC(C#N)N2C(=O)c1ccccc1 (configuration not stated) ?
Result :: 49.8

Query :: Cool, now `CS(=O)(=O)N(c1cc(-c2ccc3ncnc(Nc4cccc(Cl)c4)c3c2)cnc1Cl)S(C)(=O)=O`
Result :: -3.18

Query :: For `ClC1=C(Cl)C(Cl)=C(Cl)C1=Cc1ccc(Cl)cc1Cl` then?
Result :: -19.8

Query :: Entry to check: `CCOC(=O)c1cc(/C(=N\O)c2cc(OC)c(OC)c(OC)c2)n2cc(C)cc(C)c12`
Result :: 37.7
